Values from BigSolDB 2.1

Settings: in acetonitrile, 295.65 K
Recorded endpoint: solubility (mole fraction)
Answers are plain numbers.

// query I would be grateful if you could share the reported solubility (mole fraction) for Cc1cc(N)n(-c2ccccc2)n1 .
// result 0.157

---

Conditions: in acetonitrile, 313.15 K
Recorded endpoint: solubility (mole fraction)
One number for each entry.

// query Quick check: solubility (mole fraction) of Cc1cc(N)n(-c2ccccc2)n1 ?
// result 0.216

---

Conditions: in n-propanol, 310.65 K
Recorded endpoint: solubility (mole fraction)
Numbers only.

// query Data request, read-out solubility (mole fraction), for Cc1cc(N)n(-c2ccccc2)n1
// result 0.132

---

Conditions: in n-propanol, 315.65 K
Recorded endpoint: solubility (mole fraction)
One number for each entry.

// query Could you share which solubility (mole fraction) value was measured for Cc1cc(N)n(-c2ccccc2)n1 ?
// result 0.147

---

Conditions: in isopropanol, 305.65 K
Recorded endpoint: solubility (mole fraction)
Answers are plain numbers.

// query Request the reported solubility (mole fraction) associated with Cc1cc(N)n(-c2ccccc2)n1
// result 0.0957

---

Settings: in methanol, 283.15 K
Recorded endpoint: solubility (mole fraction)
Give bare numbers.

// query Consider the compound shown here: Cc1cc(N)n(-c2ccccc2)n1 What is its recorded solubility (mole fraction)?
// result 0.0852

---

Details: in isopropanol, 290.65 K
Recorded endpoint: solubility (mole fraction)
Numbers only.

// query Request the reported solubility (mole fraction) associated with Cc1cc(N)n(-c2ccccc2)n1
// result 0.0672

---

Conditions: in ethanol, 305.65 K
Recorded endpoint: solubility (mole fraction)

// query Name the recorded solubility (mole fraction) for Cc1cc(N)n(-c2ccccc2)n1 .
// result 0.126

---

Conditions: in methanol, 305.65 K
Recorded endpoint: solubility (mole fraction)
Answers are plain numbers.

// query Suppose we examine the compound Cc1cc(N)n(-c2ccccc2)n1 ; what solubility (mole fraction) value has been reported?
// result 0.134

---

Conditions: in 2-butanone, 310.65 K
Recorded endpoint: solubility (mole fraction)

// query I'd like to know its solubility (mole fraction). The molecule in question is Cc1cc(N)n(-c2ccccc2)n1
// result 0.0931

---

Conditions: in n-propanol, 288.15 K
Recorded endpoint: solubility (mole fraction)
Numbers only.

// query Look up solubility (mole fraction): Cc1cc(N)n(-c2ccccc2)n1
// result 0.0795

---

Conditions: in isopropanol, 295.65 K
Recorded endpoint: solubility (mole fraction)
Give bare numbers.

// query I would be grateful if you could share the reported solubility (mole fraction) for Cc1cc(N)n(-c2ccccc2)n1 .
// result 0.0755

---

Settings: in methanol, 300.65 K
Recorded endpoint: solubility (mole fraction)
Give bare numbers.

// query Could you share which solubility (mole fraction) value was measured for Cc1cc(N)n(-c2ccccc2)n1 ?
// result 0.121

---

Conditions: in methanol, 310.65 K
Recorded endpoint: solubility (mole fraction)
One number for each entry.

// query solubility (mole fraction) value for entry Cc1cc(N)n(-c2ccccc2)n1
// result 0.147

---

Conditions: in methanol, 313.15 K
Recorded endpoint: solubility (mole fraction)
Answers are plain numbers.

// query Could you share which solubility (mole fraction) value was measured for Cc1cc(N)n(-c2ccccc2)n1 ?
// result 0.154

---

Settings: in acetonitrile, 310.65 K
Recorded endpoint: solubility (mole fraction)
Numbers only.

// query Recorded solubility (mole fraction) of Cc1cc(N)n(-c2ccccc2)n1 , please.
// result 0.206

---

Settings: in ethanol, 310.65 K
Recorded endpoint: solubility (mole fraction)

// query What value of solubility (mole fraction) has been recorded for this entry: Cc1cc(N)n(-c2ccccc2)n1
// result 0.139

---

Conditions: in ethanol, 303.15 K
Recorded endpoint: solubility (mole fraction)
Numbers only.

// query Returns the measured solubility (mole fraction) for the input compound. Input: Cc1cc(N)n(-c2ccccc2)n1
// result 0.119

---

Details: in n-propanol, 318.15 K
Recorded endpoint: solubility (mole fraction)
Numbers only.

// query Fill blank: measured solubility (mole fraction) of the molecule Cc1cc(N)n(-c2ccccc2)n1 is ____.
// result 0.155

---

Conditions: in ethanol, 315.65 K
Recorded endpoint: solubility (mole fraction)
Give bare numbers.

// query Could you share which solubility (mole fraction) value was measured for Cc1cc(N)n(-c2ccccc2)n1 ?
// result 0.154

---

Details: in methanol, 298.15 K
Recorded endpoint: solubility (mole fraction)

// query I'd like to know its solubility (mole fraction). The molecule in question is Cc1cc(N)n(-c2ccccc2)n1
// result 0.115

---

Conditions: in 2-butanone, 305.65 K
Recorded endpoint: solubility (mole fraction)

// query Need solubility (mole fraction) of Cc1cc(N)n(-c2ccccc2)n1 , thanks.
// result 0.0829

---

Conditions: in n-propanol, 295.65 K
Recorded endpoint: solubility (mole fraction)
One number for each entry.

// query Look at this molecule and give its reported solubility (mole fraction). Cc1cc(N)n(-c2ccccc2)n1
// result 0.0946

---

Conditions: in n-propanol, 300.65 K
Recorded endpoint: solubility (mole fraction)
One number for each entry.

// query Requested field: solubility (mole fraction). Item: Cc1cc(N)n(-c2ccccc2)n1
// result 0.105

---

Conditions: in 2-butanone, 293.15 K
Recorded endpoint: solubility (mole fraction)
Numbers only.

// query Which value of solubility (mole fraction) has been reported for Cc1cc(N)n(-c2ccccc2)n1 in the records?
// result 0.0618

---

Settings: in acetonitrile, 298.15 K
Recorded endpoint: solubility (mole fraction)

// query What value of measured solubility (mole fraction) is listed for Cc1cc(N)n(-c2ccccc2)n1 ?
// result 0.164

---

Conditions: in n-propanol, 298.15 K
Recorded endpoint: solubility (mole fraction)
One number for each entry.

// query If you can, please state the reported solubility (mole fraction) value of Cc1cc(N)n(-c2ccccc2)n1 .
// result 0.0997

---

Conditions: in acetonitrile, 283.15 K
Recorded endpoint: solubility (mole fraction)
Numbers only.

// query Given Cc1cc(N)n(-c2ccccc2)n1 , state its recorded solubility (mole fraction).
// result 0.124

---

Conditions: in isopropanol, 298.15 K
Recorded endpoint: solubility (mole fraction)
One number for each entry.

// query Given the compound Cc1cc(N)n(-c2ccccc2)n1 , what is its reported solubility (mole fraction)?
// result 0.0802

---

Conditions: in 2-butanone, 313.15 K
Recorded endpoint: solubility (mole fraction)
One number for each entry.

// query Param item = Cc1cc(N)n(-c2ccccc2)n1 ; retrieve measured solubility (mole fraction).
// result 0.0989

---

Details: in n-propanol, 303.15 K
Recorded endpoint: solubility (mole fraction)
Give bare numbers.

// query Recorded solubility (mole fraction) for Cc1cc(N)n(-c2ccccc2)n1 , please?
// result 0.112

---

Settings: in n-propanol, 305.65 K
Recorded endpoint: solubility (mole fraction)
Give bare numbers.

// query // lookup solubility (mole fraction) for Cc1cc(N)n(-c2ccccc2)n1
// result 0.118

---

Details: in isopropanol, 300.65 K
Recorded endpoint: solubility (mole fraction)
Give bare numbers.

// query Reported solubility (mole fraction) for Cc1cc(N)n(-c2ccccc2)n1 : what is it?
// result 0.0851

---

Settings: in isopropanol, 293.15 K
Recorded endpoint: solubility (mole fraction)
Answers are plain numbers.

// query # solubility (mole fraction) lookup, item Cc1cc(N)n(-c2ccccc2)n1
// result 0.0711

---

Conditions: in acetonitrile, 288.15 K
Recorded endpoint: solubility (mole fraction)
One number for each entry.

// query Requested read-out: solubility (mole fraction). Entry: Cc1cc(N)n(-c2ccccc2)n1
// result 0.137

---

Conditions: in n-propanol, 290.65 K
Recorded endpoint: solubility (mole fraction)
Give bare numbers.

// query Suppose we examine the molecule Cc1cc(N)n(-c2ccccc2)n1 ; what solubility (mole fraction) value has been reported?
// result 0.0839

---

Settings: in isopropanol, 303.15 K
Recorded endpoint: solubility (mole fraction)
Numbers only.

// query Consider the molecule Cc1cc(N)n(-c2ccccc2)n1 and give its measured solubility (mole fraction).
// result 0.0906

---

Conditions: in n-propanol, 285.65 K
Recorded endpoint: solubility (mole fraction)
Numbers only.

// query Give its solubility (mole fraction) value. Item: Cc1cc(N)n(-c2ccccc2)n1
// result 0.0749

---

Settings: in ethanol, 318.15 K
Recorded endpoint: solubility (mole fraction)
Answers are plain numbers.

// query Value lookup for solubility (mole fraction); key = Cc1cc(N)n(-c2ccccc2)n1
// result 0.163

---

Conditions: in isopropanol, 308.15 K
Recorded endpoint: solubility (mole fraction)
Numbers only.

// query solubility (mole fraction) value for entry Cc1cc(N)n(-c2ccccc2)n1
// result 0.102

---

Conditions: in ethanol, 290.65 K
Recorded endpoint: solubility (mole fraction)
Answers are plain numbers.

// query For the compound Cc1cc(N)n(-c2ccccc2)n1 , what solubility (mole fraction) is on record?
// result 0.0903

---

Conditions: in ethanol, 295.65 K
Recorded endpoint: solubility (mole fraction)
One number for each entry.

// query Field request: solubility (mole fraction) | item: Cc1cc(N)n(-c2ccccc2)n1
// result 0.101

---

Details: in 2-butanone, 303.15 K
Recorded endpoint: solubility (mole fraction)
Answers are plain numbers.

// query Please look up its solubility (mole fraction): Cc1cc(N)n(-c2ccccc2)n1
// result 0.0784
